# TARGET ENTITY: T1, Pex13, P80667
# T1 sequence (P80667 295-386, looked up): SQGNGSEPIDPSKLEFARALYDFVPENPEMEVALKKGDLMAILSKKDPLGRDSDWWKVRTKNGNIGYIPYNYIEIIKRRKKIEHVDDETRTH
# TEST SUMMARY: SPOT array
# CONDITION CONTEXT: median of control spots 1341
What SPOT intensity was measured for each of the following?

Before answering, review these 4 worked examples.
What value of SPOT intensity has been reported for the following binder? NPLPKEPRLPKRKVA 16

I would be grateful if you could share the reported SPOT intensity for AATTSTPPLPRRRAT . 364

Could you tell me which SPOT intensity is on file for TKPTPPPKPSHLKPK ? 266

Could you share which SPOT intensity value was measured for SRSKPLPLTPNSKYN ? 21

Batch: SPOT intensity for all items listed.
1. GKKVRPLLVLLLSRA
2. VGFRLALKFPSRITG
3. TTAPALPSLPPPPLL

19
127
4

// data source = paper PMC2756588
